measured on: Mitogen-activated protein kinase 14 (Homo sapiens)
Sequence (Q16539 whole entry): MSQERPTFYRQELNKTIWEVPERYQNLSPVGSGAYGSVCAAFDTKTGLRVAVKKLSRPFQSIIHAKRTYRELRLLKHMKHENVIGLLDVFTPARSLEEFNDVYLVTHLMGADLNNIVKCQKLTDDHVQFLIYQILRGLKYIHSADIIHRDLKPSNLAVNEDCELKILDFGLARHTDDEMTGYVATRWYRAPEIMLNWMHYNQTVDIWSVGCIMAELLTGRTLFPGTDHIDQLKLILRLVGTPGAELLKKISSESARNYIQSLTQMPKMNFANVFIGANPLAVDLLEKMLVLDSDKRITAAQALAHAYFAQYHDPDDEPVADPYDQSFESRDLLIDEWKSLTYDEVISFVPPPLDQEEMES
assay remarks: Inhibition of p38alpha MAP kinase (unknown origin) using GFP-ATF2 as substrate after 1 hr by TR-FRET assay
value kind: IC50 (nM)

1. COc1cccc(N2C(=O)/C(=C/c3ccc(OCC(=O)Nc4ccc(Cl)cc4)cc3)N=C2c2ccccc2)c1
2. COc1ccc(NC(=O)COc2ccc(/C=C3\N=C(c4ccccc4)N(c4ccc(OC)cc4)C3=O)cc2)cc1
Task for the reader: decide whether 1 or 2 has the larger IC50. Respond with the label that goes with your answer.
2

###

System: MDA-MB-435
assay remarks: Antiproliferative activity against human MDA-MB-435 cells assessed as inhibition of cell vaibility after 72 hrs by MTT assay
Assay type: functional, cell-based
measurement context: MDA-MB-435, 72 h
value kind: IC50 (µM)

test_smiles=COc1cccc(N2C(=O)/C(=C/c3ccc(OCC(=O)Nc4ccc(C)cc4)cc3)N=C2c2ccccc2)c1 measured_on=MDA-MB-435 reported_measurement=0.23

P. CNC(=O)c1cc(Oc2ccc(NC(=O)Nc3ccc(Cl)c(C(F)(F)F)c3)cc2)ccn1
Q. COc1ccc(N2C(=O)/C(=C/c3ccc(OCC(=O)Nc4ccccc4Cl)cc3)N=C2c2ccccc2)cc1
Task for the reader: decide whether P or Q has the larger IC50. Respond with the label that goes with your answer.
P

The origin of these recorded values is ChEMBL document CHEMBL3576835.
